Where these numbers come from: PubChem BioAssay (NCI)

- test.description: NCI Yeast Anticancer Drug Screen. Data for the bub3 strain (AID 167)
- measurement.context: S. cerevisiae bub3 mutant strain, at 50.0 µM, hits give high values
- Method: Growth inhibition of yeast strains with defined genetic alterations is measured as a screen for potential anti-cancer activity. Selected strains with alterations in DNA damage repair or cell cycle control were exposed to compounds and growth inhibition was measured relative to vehicle treated controls. The strain used in this assay is bub3
This is part of a sample that, as a whole, favours compounds with a hit. Of some 79,000 tested, about 15% had one in any assay.
property.name: growth inhibition (%)
One number for each entry, in %.

Task: Look at this compound and give its reported growth inhibition. O=C1c2ccccc2SC[C@@H]2CCCN12
Result: 3.35

Task: Look at this compound and give its reported growth inhibition. CN(CC(=O)O)c1ncc2c(n1)-c1ccccc1OC2c1ccccc1 (configuration not stated)
Result: 28.9

Task: Look at this compound and give its reported growth inhibition. NS(=O)(=O)c1ccc(N2C(=O)C3C(C2=O)C2(Cl)C(Cl)=C(Cl)C3(Cl)C2(Cl)Cl)cc1 (configuration not stated)
Result: -4.7

Quick one: give me growth inhibition for each item below, same order please.
1. CN(C)CCC(=O)C(=Cc1ccc(O)cc1)C(=O)CCN(C)C
2. O=C(O)C1CCC(=O)N1Cc1csc(-c2ccccc2)n1 (configuration not stated)
3. C(=Nc1ccccc1-c1ccccc1N=Cc1ccccc1)c1ccccc1
4. O=C(O)CCNCCO

Result:
[7.1, -7.15, -7.75, 20.1]

Quick one: give me growth inhibition for each item below, same order please.
1. CC(=O)c1sc2c(c1OC(=O)c1ccc(Cl)cc1)c(=O)n(-c1ccccc1)c(=S)n2-c1ccccc1
2. CCCCCCCCCCS(=O)(=O)CC(=O)O
3. Cc1cccc(NC(=O)c2cccc([N+](=O)[O-])c2C(=O)O)c1C

Result:
11.9
-8.3
25.6

Quick one: give me growth inhibition for each item below, same order please.
1. NC(=O)c1csc(C2OC(CO)CC2O)n1 (configuration not stated)
2. CN(C)CC(c1ccccc1)C(O)(c1ccccc1)c1ccccc1 (configuration not stated)

Result:
1. 0.2
2. -18

###

- test.description: NCI Yeast Anticancer Drug Screen. Data for the rad50 strain (AID 155);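 further: 0% = growth of vehicle-only cultures of the same strain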
- measurement.context: S. cerevisiae rad50 strain growth inhibition; at 50.0 µM
About 79,000 compounds went through this panel and 15% of them were active in at least one assay; those are over-represented in the sample as a whole. Calls of active or inactive are those of the source. No stated cut-off is given here; in the data, active means growth inhibition above about 70%; inactive means the rest.
Your answer must be one of the following: t (active), f (inactive)

Reference set (3 entries):
Task: Name the outcome recorded for [Cl][Pt+2][Cl].[NH-]C1CCCC1[NH-] (centres undefined) in the assay.
Result: f

Task: Name the outcome recorded for O=C(c1ccccc1)C1C(/C=C/c2ccccc2)C(C(=O)c2ccccc2)C1/C=C/c1ccccc1 (centres undefined) in the assay.
Result: f

Task: Name the outcome recorded for COC1OC2COC(c3ccccc3)OC2C(N=[N+]=[N-])C1O (centres undefined) in the assay.
Result: f

Next:
Task: Name the outcome recorded for O=C1OC(=Nc2ccccc2Cl)c2ccccc21 in the assay.
Result: f

Task: Name the outcome recorded for Cc1cc(N(CCC#N)CCC#N)ccc1/C(N=Nc1ccc(Cl)cc1)=N\NC(=O)c1cc(Cl)ccc1O in the assay.
Result: f

Task: Name the outcome recorded for Cc1cn(C2CC(N(C)O)C(CO)O2)c(=O)[nH]c1=O (centres undefined) in the assay.
Result: f

Task: Name the outcome recorded for CC1Cn2c(nccc2=O)S1 (centres undefined) in the assay.
Result: f
